- System: HIV-1CH58TF infected primary CD4+ T cells
- experimental.protocol: ADCC FACS-based assay with HIV+ plasma, HIV-1CH58TF infected cells
- Format: cell-based, human
- condition.summary: 50 μM compound; plasma 1:1000
measured.quantity: Susceptibility of HIV-1CH58TF infected cells to ADCC mediated by HIV+ plasma (in words)

NCCNC(=O)N1CCC[C@H](C(=O)Nc2ccc(Cl)c(F)c2)C1 [MCG-IV-210, reference compound]: enhanced
C[C@@H]1CN(C(=O)N2CCC[C@H](C(=O)Nc3ccc(Cl)c(F)c3)C2)C[C@H](C)N1C (stereo in doubt) [TFH-I-116-D1]: also the case
CN1CCN(C(=O)N2C[C@H](CN)C[C@H](C(=O)Nc3ccc(Cl)c(F)c3)C2)CC1 (stereo in doubt) [ZXC-I-090]: also the case
CNCc1ccc2c(c1)C[C@H](CN=C(N)N)[C@H]2NC(=O)C(=O)Nc1ccc(Cl)c(F)c1.O=C(O)C(F)(F)F.O=C(O)C(F)(F)F [BNM-III-170, reference compound]: enhanced
C[C@@H]1CN(C(=O)N2C[C@H](CN)C[C@H](C(=O)Nc3ccc(Cl)c(F)c3)C2)C[C@H](C)N1C (stereo in doubt) [ZXC-I-092]: also the case
NCC(=O)N1CCN(C(=O)N2C[C@H](CO)C[C@H](C(=O)Nc3ccc(Cl)c(F)c3)C2)CC1 (racemic) [DL-I-101]: also the case
CN1CCN(C(=O)N2CCC[C@H](C(=O)Nc3ccc(Cl)c(F)c3)C2)CC1 [TFH-I-070-A6]: also the case

Alright, here's another molecule for you.
Task item: Form field: reported Susceptibility of HIV-1CH58TF infected cells to ADCC mediated by HIV+ plasma (in words) of O=C(O)CN1CCN(C(=O)N2C[C@H](CO)C[C@H](C(=O)Nc3ccc(Cl)c(F)c3)C2)CC1 (racemic) [DL-I-102]
Reply: also the case

* * *

- Tested on: HIV-1AD8 infected primary CD4+ T cells
- experimental.protocol: Cell-surface staining with HIV+ plasma, HIV-1AD8 infected cells
- condition.summary: 50 μM compound; plasma 1:1000
measured.quantity: HIV+ plasma binding to HIV-1AD8 infected cells

NCC(=O)N1CCN(C(=O)N2C[C@H](CO)C[C@H](C(=O)Nc3ccc(Cl)c(F)c3)C2)CC1 (racemic) [DL-I-101]: did
CN1CCN(C(=O)N2CCC[C@H](C(=O)Nc3ccc(Cl)c(F)c3)C2)CC1 [TFH-I-070-A6]: did
C[C@@H]1CN(C(=O)N2CCC[C@H](C(=O)Nc3ccc(Cl)c(F)c3)C2)C[C@H](C)N1C (stereo in doubt) [TFH-I-116-D1]: did

* * *

- System: HIV-1CH58TF
- experimental.protocol: Viral neutralization in TZM-bl cells (luciferase), HIV-1CH58TF
- Assay type: cell-based
- condition.summary: Human immunodeficiency virus 1, TZM-bl, read-out: IC50 HIV-1CH58TF
measured.quantity: IC50 (µM)
Just the number please, in µM, no unit attached.

Task item: Form field: reported IC50 of C[C@@H]1CN(C(=O)N2CCC[C@H](C(=O)Nc3ccc(Cl)c(F)c3)C2)C[C@H](C)N1C (stereo in doubt) [TFH-I-116-D1]
Reply: 0.065

* * *

For each record, write down the corresponding pIC50.
- Test system: HIV-1JRFL
- experimental.protocol: Viral neutralization in TZM-bl cells (luciferase), HIV-1JRFL
- Assay type: cell-based
- condition.summary: Human immunodeficiency virus 1, TZM-bl, read-out: IC50 HIV-1JRFL
Entry type: numeric. Quantity: pIC50, the -log10 of concentration in molar units.

Task item: Can you look up pIC50 on HIV-1JRFL for C[C@@H]1CN(C(=O)N2C[C@H](CN)C[C@H](C(=O)Nc3ccc(Cl)c(F)c3)C2)C[C@H](C)N1C (stereo in doubt) ?
Reply: 4.27

Task item: Can you look up pIC50 on HIV-1JRFL for CN1CCN(C(=O)N2CCC[C@H](C(=O)Nc3ccc(Cl)c(F)c3)C2)CC1 ?
Reply: 4.17

* * *

- Tested on: VSV-G pseudovirus
- experimental.protocol: microbe, parasite or virus in culture
- Type: cell-based
- condition.summary: read-out: IC50 VSV-G pseudovirus
pIC50: −log10 of the molar value.
measured.quantity: pIC50

Task item: Can you look up pIC50 on VSV-G pseudovirus for CNCc1ccc2c(c1)C[C@H](CN=C(N)N)[C@H]2NC(=O)C(=O)Nc1ccc(Cl)c(F)c1.O=C(O)C(F)(F)F.O=C(O)C(F)(F)F [BNM-III-170, reference compound] ?
Reply: < 4.00

* * *

- Test system: HIV-1JRFL
- experimental.protocol: Viral neutralization in TZM-bl cells (luciferase), HIV-1JRFL
- Type: cell-based
- condition.summary: Human immunodeficiency virus 1, TZM-bl, read-out: IC50 (JR-FL)
measured.quantity: pIC50
Entry type: numeric. Quantity: pIC50, the -log10 of concentration in molar units.

Task item: Form field: reported pIC50 of CN1CCN(C(=O)N2CCC[C@H](C(=O)Nc3ccc(Cl)c(F)c3)C2)CC1 [TFH-I-070-A6]
Reply: 4.10

Task item: Form field: reported pIC50 of CN1CCN(C(=O)N2C[C@H](CN)C[C@H](C(=O)Nc3ccc(Cl)c(F)c3)C2)CC1 (stereo in doubt) [ZXC-I-090]
Reply: 4.74

Task item: Form field: reported pIC50 of C[C@@H]1CN(C(=O)N2CCC[C@H](C(=O)Nc3ccc(Cl)c(F)c3)C2)C[C@H](C)N1C (stereo in doubt) [TFH-I-116-D1]
Reply: 4.70

Task item: Form field: reported pIC50 of C[C@@H]1CN(C(=O)N2C[C@H](CN)C[C@H](C(=O)Nc3ccc(Cl)c(F)c3)C2)C[C@H](C)N1C (stereo in doubt) [ZXC-I-092]
Reply: 4.55

Provenance of the data: patent US20260001844A1
